Value source: paper PMC5253077

Test system: S. epidermidis 1457
Type: cell-based, Staphylococcus epidermidis
Conditions: 1457, 20 h
Square brackets hold non-standard residues; d marks the D form. Peptide text beside a SMILES is read from it.
experimental_endpoint: MIC S. epidermidis 1457

| compound | MIC S. epidermidis 1457 |
| --- | --- |
| CC[C@H](C)[C@H](NC(=O)[C@H](CCCNC(=N)N)NC(=O)[C@H](CO)NC(=O)[C@H](CC(C)C)NC(=O)[C@H](Cc1c[nH]c2ccccc12)NC(=O)[C@H](Cc1c[nH]c2ccccc12)NC(=O)[C@@H](N)Cc1c[nH]c2ccccc12)C(=O)N[C@@H](Cc1c[nH]c2ccccc12)C(=O)O [TetraF2W] (H-WWWLSRIW-OH) | >50 µM |

For S. epidermidis 1457, give the measured MIC S. epidermidis 1457 of the entry CC[C@H](C)[C@H](NC(=O)[C@H](CCCCN)NC(=O)[C@H](CCCCN)NC(=O)[C@H](CC(C)C)NC(=O)[C@H](Cc1c[nH]c2ccccc12)NC(=O)[C@H](Cc1c[nH]c2ccccc12)NC(=O)[C@@H](N)Cc1c[nH]c2ccccc12)C(=O)N[C@@H](Cc1c[nH]c2ccccc12)C(=O)O [TetraF2W-KK] (H-WWWLKKIW-OH)
6.2 µM

For S. epidermidis 1457, give the measured MIC S. epidermidis 1457 of the entry CC[C@@H](C)[C@@H](NC(=O)[C@@H](CCCCN)NC(=O)[C@@H](CCCNC(=N)N)NC(=O)[C@@H](CC(C)C)NC(=O)[C@@H](Cc1c[nH]c2ccccc12)NC(=O)[C@@H](Cc1c[nH]c2ccccc12)NC(=O)[C@H](N)Cc1c[nH]c2ccccc12)C(=O)N[C@H](Cc1c[nH]c2ccccc12)C(=O)O [TetraF2W-RK-d] (H-[dW][dW][dW][dL][dR][dK][dI][dW]-OH)
6.2 µM

For S. epidermidis 1457, give the measured MIC S. epidermidis 1457 of the entry CC[C@H](C)[C@H](NC(=O)[C@H](CCCNC(=N)N)NC(=O)[C@H](CCCCN)NC(=O)[C@H](CC(C)C)NC(=O)[C@H](Cc1c[nH]c2ccccc12)NC(=O)[C@H](Cc1c[nH]c2ccccc12)NC(=O)[C@@H](N)Cc1c[nH]c2ccccc12)C(=O)N[C@@H](Cc1c[nH]c2ccccc12)C(=O)O [TetraF2W-KR] (H-WWWLKRIW-OH)
12.5 µM

For S. epidermidis 1457, give the measured MIC S. epidermidis 1457 of the entry CC[C@H](C)[C@H](NC(=O)[C@H](CCCCN)NC(=O)[C@H](CCCNC(=N)N)NC(=O)[C@H](CC(C)C)NC(=O)[C@H](Cc1c[nH]c2ccccc12)NC(=O)[C@H](Cc1c[nH]c2ccccc12)NC(=O)[C@@H](N)Cc1c[nH]c2ccccc12)C(=O)N[C@@H](Cc1c[nH]c2ccccc12)C(=O)O [TetraF2W-RK] (H-WWWLRKIW-OH)
6.2 µM
